- System: DU-145
- ASSAY: NCI tumour cell line growth inhibition, 48 h
Active and inactive are the calls of the source. Cut-off read from the data, not from the text of the source: active = GI50 up to about 1.1 µM and inactive = higher.
Possible outcomes: 1.0 for active, 0.0 for inactive

INSERT INTO assay_data (compound, assigned_class) VALUES
  ('CCN(CC)C(=S)SS(=O)(=O)c1cccc(N)c1', 0.0),
  ('COc1cccc(/C=N/NC(=O)CN(C)C)c1O', 0.0),
  ('N#C/C(C(=O)Nc1ccc(Cl)cc1)=C(/N)N1CCCC1', 0.0),
  ('O=C1Nc2ccc(Br)cc2/C1=N/NC(=S)Nc1ccc(F)cc1', 0.0),
  ('Cc1ccc2c(c1)[n+]([O-])c(N)n[n+]2[O-]', 0.0),
  ('Clc1ccccc1/C=C/c1ccnc2ccccc12', 0.0),
  ('Cc1ccc(C(=O)Nc2ccc(S(=O)(=O)O)c3cc(S(=O)(=O)O)cc(S(=O)(=O)O)c23)cc1NC(=O)Nc1cc(C(=O)Nc2ccc(S(=O)(=O)O)c3cc(S(=O)(=O)O)cc(S(=O)(=O)O)c23)ccc1C', 0.0),
  ('COc1cc2c3c(c4cc(OC)c(OC)cc4c2cc1OC)C(=O)C1CCC(=O)N1C3 (configuration not stated)', 0.0),
  ('CC(=O)NCCC1CN(C(=O)/C=C\C#C[Si](C)(C)C)c2ccccc21 (configuration not stated)', 0.0),
  ('COC(=O)C1C(=O)N(C)C(=O)N2CCCC12 (configuration not stated)', 0.0),
  ('O=[N+]([O-])c1cccc2nc3ccccc3c(NCCCNc3c4ccccc4nc4cccc([N+](=O)[O-])c34)c12', 1.0),
  ('O=[N+]([O-])/C=C/c1c(Cl)cccc1Cl', 0.0),
  ('COC(=O)CCCC(=O)C1=NN(c2ccc(Cl)cc2)Cc2ccccc2N1', 0.0),
  ('Cn1c(=O)c2c(ncn2CN2CCN(Cn3cnc4c3c(=O)n(C)c(=O)n4C)CC2)n(C)c1=O', 0.0),
  ('CC(=O)c1c(-c2cccc3ccccc23)c(C#N)c(=S)n(C2OC(CO)C(O)C(O)C2O)c1C (configuration not stated)', 0.0),
  ('N[C@@H]1C[C@H](N)c2c(Cl)sc(Cl)c21', 0.0),
  ('c1cc2c(c(NC3=NCCO3)c1)CCC2', 0.0),
  ('CCOC(=O)C1=CN(C(=O)c2ccccc2)CCC1Cc1ccccc1 (configuration not stated)', 0.0),
  ('CCOC(=O)/C(=C\c1ccnc2ccccc12)P(=O)(OCC)OCC', 0.0),
  ('COc1ccc2c(-c3csc(-c4c[nH]c5ccc(Br)cc45)n3)c[nH]c2c1', 0.0),
  ('Cc1ccsc1/C=N/Nc1nncc2ccccc12', 0.0),
  ('ClCCCN(CCCCl)c1ccc(/C=N/c2cccc(Cl)c2)cc1', 0.0);

###

- System: U-251
- ASSAY: NCI tumour cell line growth inhibition, 48 h
Activity calls are given as the source filed them. No stated cut-off is given here; in the data, active = GI50 up to about 1.1 µM and inactive = higher.
Possible outcomes: active, inactive

INSERT INTO assay_data (molecule, assigned_class) VALUES
  ('Cc1cc(=O)[nH]c2c1C(=O)c1c(C)cc(=O)n(C)c1C2=O', 'active'),
  ('CC1=C2O[B-](c3ccccc3)(c3ccccc3)[O+]=C2C=CN1', 'inactive'),
  ('N#C/C(=C\c1ccc([N+](=O)[O-])o1)c1n[nH]c(Cc2ccccc2)n1', 'inactive'),
  ('C/C(=N\NC(=S)Nc1ccc(C)cc1)c1nc2cccnc2[nH]1', 'inactive'),
  ('COC(=O)C1Cc2c(OC)ccc(OC)c2C(O)C1C(=O)OC (stereo unspecified)', 'inactive'),
  ('CN(C)CCCn1cnc2ncccc2c1=O', 'inactive');
